Target: T1, 4H883-bH
T1 chain: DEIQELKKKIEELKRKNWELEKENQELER
Assay: two-hybrid library CCNG1;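 further: natural log of median RNA to DNA barcode read ratio; higher means stronger binding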
observable: interaction score
One number for each entry.

The cases that follow already have their interaction score on record.
>  <binder>
DKNQELKKEIEELERENWELEKKIQELKR [4H3606-bH]

>  <interaction score>
0.484

$$$$
>  <binder>
DENQELKKKIEELERKIWELEKENQELKR [4H1828-bH]

>  <interaction score>
0.204

$$$$

Record interaction score per entry; entries follow.
1. DENQELKKKIEELERKNWELEKKIQELER [4H1845-bH]
2. DKIQELKKENEELERKIWELKKEIQELER [4H2729-bH]
3. DENQELEKKNEELERKIWELEKKIQELKR [4H1446-bH]

Given back:
0.0604
-0.885
0.0186

Batch request: interaction score per item, same order as input.
1. DEIQELKKEIEELKRENWELKKKNQELER [4H607-bH]
2. DEIQELEKEIEELKREIWELEKKNQELKR [4H72-bH]

Given back:
1: 0.522; 2: 1.69
